The origin of these recorded values is the NIST ThermoML archive (doi:10.1016/j.fluid.2006.03.002).

assayNotes: activity coefficient (dimensionless); of the first substance listed, at infinite dilution; xn = mol fraction of the nth substance listed
conditionNotes: 328.15 K; Liquid; Chromatography; x1 = 0
# note: boundary value 8 maps to not satisfied; activity coefficient below it maps to satisfied

Example entries begin here.
> print(dat)
                                   compound  categorylabel
1  C1CCCC1 [cyclopentane] + CCCC[P+](C)(CCCC)CCCC.COS(=O)(=O)[O-]      satisfied
2  C1CCCCC1 [cyclohexane] + CCCC[P+](C)(CCCC)CCCC.COS(=O)(=O)[O-]      satisfied
3  C=CCCCCCC [oct-1-ene] + CCCC[P+](C)(CCCC)CCCC.COS(=O)(=O)[O-]  not satisfied
4  CCCCCCCC [octane] + CCCC[P+](C)(CCCC)CCCC.COS(=O)(=O)[O-]  not satisfied
5  c1ccccc1 [benzene] + CCCC[P+](C)(CCCC)CCCC.COS(=O)(=O)[O-]      satisfied

Task: For this compound, is activity coefficient lower than 8? C=CCCCCC [1-heptene] + CCCC[P+](C)(CCCC)CCCC.COS(=O)(=O)[O-]
Result: satisfied

Task: Below 8 on activity coefficient? Entry C=CCCCC [hex-1-ene] + CCCC[P+](C)(CCCC)CCCC.COS(=O)(=O)[O-]
Result: satisfied

Task: is_below(activity coefficient, 8) for CCCCCC [hexane] + CCCC[P+](C)(CCCC)CCCC.COS(=O)(=O)[O-] ?
Result: not satisfied

Task: Field: below-cutoff. Rule: recorded activity coefficient strictly less than 8. Subject: C1CCCCCC1 [cycloheptane] + CCCC[P+](C)(CCCC)CCCC.COS(=O)(=O)[O-]
Result: satisfied

Task: Consider the compound CCCCC [pentane] + CCCC[P+](C)(CCCC)CCCC.COS(=O)(=O)[O-] . Is its activity coefficient strictly less than 8?
Result: satisfied

Task: Item CCCCCCC [heptane] + CCCC[P+](C)(CCCC)CCCC.COS(=O)(=O)[O-] : activity coefficient beneath 8, strictly?
Result: not satisfied

====

assayNotes: activity coefficient (dimensionless); of the first substance listed, at infinite dilution; xn = mol fraction of the nth substance listed
conditionNotes: 308.15 K; Liquid; Chromatography; x1 = 0
measureName: activity coefficient
API doc: respond with a numeric literal and nothing else, no unit.

Use these answered entries as a reference point.
> print(dat)
                                   molecule  readoutvalue
1  C=CCCCCC [1-heptene] + CCCC[P+](C)(CCCC)CCCC.COS(=O)(=O)[O-]           8.2
2  C1CCCC1 [cyclopentane] + CCCC[P+](C)(CCCC)CCCC.COS(=O)(=O)[O-]           4.5
3  c1ccccc1 [benzene] + CCCC[P+](C)(CCCC)CCCC.COS(=O)(=O)[O-]             1

Next, consider the following molecule.
Task: Reported activity coefficient, molecule C=CCCCCCC [oct-1-ene] + CCCC[P+](C)(CCCC)CCCC.COS(=O)(=O)[O-] : ____
Result: 10.1

====

assayNotes: activity coefficient (dimensionless); of the first substance listed, at infinite dilution; xn = mol fraction of the nth substance listed
conditionNotes: 318.15 K; Liquid; Chromatography; x1 = 0
Class (by activity coefficient) -- low (below 5), medium (5 to below 10), high (10 or more)

> print(dat)
                                   compound  categorylabel
1  C1CCCC1 [cyclopentane] + CCCC[P+](C)(CCCC)CCCC.COS(=O)(=O)[O-]            low

Task: Class for CCCCCCC [heptane] + CCCC[P+](C)(CCCC)CCCC.COS(=O)(=O)[O-] ?
Result: high

Task: Assign a category based on measured activity coefficient for CCCCCC [hexane] + CCCC[P+](C)(CCCC)CCCC.COS(=O)(=O)[O-] and give only the class name.
Result: medium

Task: Into which category would you place CCCCCCCC [octane] + CCCC[P+](C)(CCCC)CCCC.COS(=O)(=O)[O-] ?
Result: high

Task: Class label required: C#CCCCC [1-hexyne] + CCCC[P+](C)(CCCC)CCCC.COS(=O)(=O)[O-]
Result: low

Task: Could you tell me which band c1ccccc1 [benzene] + CCCC[P+](C)(CCCC)CCCC.COS(=O)(=O)[O-] belongs to?
Result: low

Task: Kindly state the category for this compound: C1CCCCC1 [cyclohexane] + CCCC[P+](C)(CCCC)CCCC.COS(=O)(=O)[O-]
Result: medium

====

assayNotes: activity coefficient (dimensionless); of the first substance listed, at infinite dilution; xn = mol fraction of the nth substance listed
conditionNotes: 308.15 K; Liquid; Chromatography; x1 = 0
measureName: activity coefficient
The reply should be a number, written without any unit.

Reference set, count: 7
> print(dat)
                                   compound           measurename  readoutvalue
1  CCCCC [pentane] + CCCC[P+](C)(CCCC)CCCC.COS(=O)(=O)[O-]  activity coefficient           8.1
2  C1CCCCC1 [cyclohexane] + CCCC[P+](C)(CCCC)CCCC.COS(=O)(=O)[O-]  activity coefficient           5.5
3  C1CCCCCC1 [cycloheptane] + CCCC[P+](C)(CCCC)CCCC.COS(=O)(=O)[O-]  activity coefficient           6.5
4  C#CCCCC [1-hexyne] + CCCC[P+](C)(CCCC)CCCC.COS(=O)(=O)[O-]  activity coefficient           1.8
5  CCCCCCCC [octane] + CCCC[P+](C)(CCCC)CCCC.COS(=O)(=O)[O-]  activity coefficient          17.3
6  CCCCCCC [heptane] + CCCC[P+](C)(CCCC)CCCC.COS(=O)(=O)[O-]  activity coefficient          13.4
7  CCCCCC [hexane] + CCCC[P+](C)(CCCC)CCCC.COS(=O)(=O)[O-]  activity coefficient          10.3

Pending compound:
Task: Bench note: what activity coefficient did C=CCCCC [hex-1-ene] + CCCC[P+](C)(CCCC)CCCC.COS(=O)(=O)[O-] show?
Result: 6.4

====

assayNotes: activity coefficient (dimensionless); of the first substance listed, at infinite dilution; xn = mol fraction of the nth substance listed
conditionNotes: 318.15 K; Liquid; Chromatography; x1 = 0
Known activity coefficient of a selection of molecules

Reference set, count: 4
> print(dat)
                                   molecule  readoutvalue
1  CCCCC [pentane] + CCCC[P+](C)(CCCC)CCCC.COS(=O)(=O)[O-]           7.7
2  C=CCCCC [hex-1-ene] + CCCC[P+](C)(CCCC)CCCC.COS(=O)(=O)[O-]             6
3  C=CCCCCCC [oct-1-ene] + CCCC[P+](C)(CCCC)CCCC.COS(=O)(=O)[O-]            10
4  C=CCCCCC [1-heptene] + CCCC[P+](C)(CCCC)CCCC.COS(=O)(=O)[O-]             8

Here is the next item to consider.
Task: State the recorded activity coefficient for this entry: C1CCCCCC1 [cycloheptane] + CCCC[P+](C)(CCCC)CCCC.COS(=O)(=O)[O-]
Result: 6.4
